The values you see were collected from patent US20240299387A1.

System under test: EGFR L858R T790M in NCI-H1975 cell line (Homo sapiens, UniProt P00533, L858R/T790M)
Construct: host or cells: NCI-H1975
Sequence (P00533 25-1210 T790M/L858R): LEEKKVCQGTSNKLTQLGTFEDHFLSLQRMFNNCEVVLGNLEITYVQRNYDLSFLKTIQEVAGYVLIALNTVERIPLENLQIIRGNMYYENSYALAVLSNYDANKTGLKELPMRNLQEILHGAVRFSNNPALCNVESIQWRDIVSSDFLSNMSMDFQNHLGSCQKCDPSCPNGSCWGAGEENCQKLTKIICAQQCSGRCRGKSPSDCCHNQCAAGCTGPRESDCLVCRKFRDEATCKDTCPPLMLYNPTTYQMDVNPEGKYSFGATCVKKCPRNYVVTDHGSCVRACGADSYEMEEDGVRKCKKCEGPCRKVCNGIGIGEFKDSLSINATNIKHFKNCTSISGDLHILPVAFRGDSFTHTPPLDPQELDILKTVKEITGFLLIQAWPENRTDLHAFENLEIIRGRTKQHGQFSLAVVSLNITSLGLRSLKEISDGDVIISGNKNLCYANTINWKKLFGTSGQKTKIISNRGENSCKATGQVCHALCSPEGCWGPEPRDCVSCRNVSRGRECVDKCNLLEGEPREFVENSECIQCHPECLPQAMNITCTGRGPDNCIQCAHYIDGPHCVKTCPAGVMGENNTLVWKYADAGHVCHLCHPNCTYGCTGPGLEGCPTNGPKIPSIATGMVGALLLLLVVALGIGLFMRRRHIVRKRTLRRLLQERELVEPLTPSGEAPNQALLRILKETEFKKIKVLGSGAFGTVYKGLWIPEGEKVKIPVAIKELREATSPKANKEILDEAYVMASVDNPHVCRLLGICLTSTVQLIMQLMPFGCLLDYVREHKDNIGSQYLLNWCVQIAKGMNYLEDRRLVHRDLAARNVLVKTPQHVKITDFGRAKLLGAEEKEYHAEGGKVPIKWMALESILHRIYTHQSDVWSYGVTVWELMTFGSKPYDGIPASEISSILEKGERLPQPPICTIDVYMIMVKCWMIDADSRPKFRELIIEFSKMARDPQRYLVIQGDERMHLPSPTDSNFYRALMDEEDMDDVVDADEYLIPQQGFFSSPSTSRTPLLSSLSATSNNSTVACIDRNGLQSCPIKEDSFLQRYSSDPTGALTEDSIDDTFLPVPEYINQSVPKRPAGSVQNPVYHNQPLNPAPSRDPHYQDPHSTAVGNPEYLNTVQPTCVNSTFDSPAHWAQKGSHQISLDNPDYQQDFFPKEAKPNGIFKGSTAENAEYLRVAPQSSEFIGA
Protocol text: NCI-H1975 pEGFR AlphaLISA assay
Format: cell-based
Protocol conditions: NCI-H1975 cells (EGFR L858R T790M), p-EGFR (Tyr1068), 4-5 hours incubation; read-out: Ext pEGFR H1975 GMean IC50 (nM) Protocol: @Pharmaron AlphaLISA (Num)
# maps each entry to its IC50

Compound	IC50
CC(C)c1cnc(C(=O)N[C@H]2C[C@@H](C#N)C2)c2cnc(Nc3ccnc(N4CC[C@@H](O)[C@@](C)(F)C4)n3)cc12 [Example 81]	20 to 30 nM
CC(=O)N1CC(COc2cccc3cc(Nc4ccnc(N5C[C@@H](F)[C@@H](O)C(C)(C)C5)n4)ncc23)C1 (single isomer, unassigned) [Example 42]	> 50 nM
CC(=O)N1CC([C@@H](C)Oc2ccc(C(C)C)c3cc(Nc4ccnc(N5CC[C@@H](O)[C@@](C)(F)C5)n4)ncc23)C1 (single isomer, unassigned) [Example 24]	< 10 nM

With those in mind, consider the next compound.
Request: I have this compound here, CC(C)c1ccc(OC[C@@H](C)n2cnnc2)c2cnc(Nc3ccnc(N4CC[C@](C)(O)[C@H](F)C4)n3)cc12 [Example 37] , and I need its recorded IC50.
Result: 30 to 50 nM
